For each of the compounds below, state its Affinity Kd.
# target-under-test: 14-3-3γ (Homo sapiens, UniProt P61981)
# Construct: made in house; host or cells: E. coli NiCo21 (DE3)
# Sequence (P61981 whole entry): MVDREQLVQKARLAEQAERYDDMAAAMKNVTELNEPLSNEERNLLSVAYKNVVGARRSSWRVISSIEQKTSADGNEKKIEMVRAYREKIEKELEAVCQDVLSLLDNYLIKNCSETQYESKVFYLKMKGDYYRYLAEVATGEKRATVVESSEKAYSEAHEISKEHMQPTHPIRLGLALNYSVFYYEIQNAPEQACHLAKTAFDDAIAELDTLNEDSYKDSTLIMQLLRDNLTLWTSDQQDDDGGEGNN
# method-summary: Fluorescence anisotropy (FA) binary binding study: 14-3-3 titrated to fluorescein-labelled peptide
# run-conditions: Table S4, point-mutated peptides; FA, 10 nM FITC-labelled peptide; replicate 1
Where a SMILES comes first, the peptide text is derived from it. [ ]: non-standard residue; d: D form. ξ: configuration not given here. Phe(4-NO2) = N[C@@H](Cc1ccc([N+](=O)[O-])cc1)C(=O)O; ξAla(4-thiazolyl) = NC(Cc1cscn1)C(=O)O; pS = N[C@@H](COP(=O)(O)O)C(=O)O; β3hS = N[C@@H](CO)CC(=O)O; Nva = CCC[C@H](N)C(=O)O; βAla = NCCC(=O)O
Hi, when you answer, please include the unit after the number. Thanks!

CCC[C@H](NC(=O)[C@H](N)CCCCN)C(=O)N[C@@H](Cc1ccc([N+](=O)[O-])cc1)C(=O)NC(Cc1cscn1)C(=O)N[C@@H](COP(=O)(O)O)C(=O)N[C@@H](Cc1ccc(O)cc1)C(=O)N[C@@H](CO)CC(=O)NCCC(=O)N[C@@H](Cc1ccc([N+](=O)[O-])cc1)C(=O)N[C@@H](CCCCN)C(N)=O (stereo partly drawn) [4a] (H-[dK][Nva][Phe(4-NO2)][ξAla(4-thiazolyl)][pS]Y[β3hS][βAla][Phe(4-NO2)]K-NH2; N-terminus and C-terminus assumed) | 47 nM

Okay, next one:
Consider CCC[C@H](NC(=O)[C@H](N)CCCCN)C(=O)N[C@@H](Cc1ccc([N+](=O)[O-])cc1)C(=O)NC(Cc1cscn1)C(=O)N[C@@H](COP(=O)(O)O)C(=O)N[C@@H](C)C(=O)N[C@@H](CO)CC(=O)NCCC(=O)N[C@@H](Cc1ccc([N+](=O)[O-])cc1)C(=O)N[C@@H](CCCCN)C(N)=O (stereo partly drawn) [4c] (H-[dK][Nva][Phe(4-NO2)][ξAla(4-thiazolyl)][pS]A[β3hS][βAla][Phe(4-NO2)]K-NH2; N-terminus and C-terminus assumed) . Its measured Affinity Kd is 1200 nM

###

# target-under-test: 14-3-3γ (Homo sapiens)
# Construct: made in house; host or cells: E. coli NiCo21 (DE3)
# method-summary: Isothermal titration calorimetry (ITC) of 14-3-3 binding to peptide
# run-conditions: Table S5; ΔG minus ΔG of peptide 1, ITC; first unlabelled line (replicate 1)
Where a SMILES comes first, the peptide text is derived from it. [ ]: non-standard residue; d: D form. Phe(4-NO2) = N[C@@H](Cc1ccc([N+](=O)[O-])cc1)C(=O)O; pS = N[C@@H](COP(=O)(O)O)C(=O)O; β3hS = N[C@@H](CO)CC(=O)O; Nva = CCC[C@H](N)C(=O)O; βAla = NCCC(=O)O
readout: ΔΔG to 1 (kcal/mol)
Numbers only, in kcal/mol.

Consider CCC[C@H](NC(=O)[C@H](N)CCCCN)C(=O)N[C@@H](Cc1ccc([N+](=O)[O-])cc1)C(=O)N[C@@H](C)C(=O)N[C@@H](COP(=O)(O)O)C(=O)N[C@@H](Cc1ccc([N+](=O)[O-])cc1)C(=O)N[C@@H](CO)CC(=O)NCCC(=O)N[C@@H](Cc1ccc([N+](=O)[O-])cc1)C(=O)N[C@@H](CCCCN)C(N)=O [3a] (H-[dK][Nva][Phe(4-NO2)]A[pS][Phe(4-NO2)][β3hS][βAla][Phe(4-NO2)]K-NH2; N-terminus and C-terminus assumed) . Its measured ΔΔG to 1 is 0.4

###

# target-under-test: 14-3-3γ (Homo sapiens)
# Construct: made in house; host or cells: E. coli NiCo21 (DE3)
# method-summary: Fluorescence anisotropy (FA) binary binding study: 14-3-3 titrated to fluorescein-labelled peptide
# run-conditions: Table S4, point-mutated peptides; FA, 10 nM FITC-labelled peptide; replicate 2
Where a SMILES comes first, the peptide text is derived from it. [ ]: non-standard residue; d: D form. ξ: configuration not given here. Phe(4-NO2) = N[C@@H](Cc1ccc([N+](=O)[O-])cc1)C(=O)O; ξAla(4-thiazolyl) = NC(Cc1cscn1)C(=O)O; pS = N[C@@H](COP(=O)(O)O)C(=O)O; β3hS = N[C@@H](CO)CC(=O)O; Nva = CCC[C@H](N)C(=O)O; βAla = NCCC(=O)O
For each of the compounds below, state its Affinity Kd.
Give bare numbers, in µM.

Known results for compounds:
CCC[C@H](NC(=O)[C@H](N)CCCCN)C(=O)N[C@@H](Cc1ccc([N+](=O)[O-])cc1)C(=O)NC(Cc1cscn1)C(=O)N[C@@H](COP(=O)(O)O)C(=O)N[C@@H](Cc1ccc([N+](=O)[O-])cc1)C(=O)N[C@@H](CO)CC(=O)NCCC(=O)N[C@@H](Cc1ccccc1)C(=O)N[C@@H](CCCCN)C(N)=O (stereo partly drawn) [5b] (H-[dK][Nva][Phe(4-NO2)][ξAla(4-thiazolyl)][pS][Phe(4-NO2)][β3hS][βAla]FK-NH2; N-terminus and C-terminus assumed) | 1.2
CCC[C@H](NC(=O)[C@H](N)CCCCN)C(=O)N[C@@H](Cc1ccc([N+](=O)[O-])cc1)C(=O)N[C@@H](C)C(=O)N[C@@H](COP(=O)(O)O)C(=O)N[C@@H](Cc1ccc([N+](=O)[O-])cc1)C(=O)N[C@@H](CO)CC(=O)NCCC(=O)N[C@@H](Cc1ccc([N+](=O)[O-])cc1)C(=O)N[C@@H](CCCCN)C(N)=O [3a] (H-[dK][Nva][Phe(4-NO2)]A[pS][Phe(4-NO2)][β3hS][βAla][Phe(4-NO2)]K-NH2; N-terminus and C-terminus assumed) | 0.042
CCC[C@H](NC(=O)[C@H](N)CCCCN)C(=O)N[C@@H](Cc1ccc([N+](=O)[O-])cc1)C(=O)NC(Cc1cscn1)C(=O)N[C@@H](COP(=O)(O)O)C(=O)N[C@@H](C)C(=O)N[C@@H](CO)CC(=O)NCCC(=O)N[C@@H](Cc1ccc([N+](=O)[O-])cc1)C(=O)N[C@@H](CCCCN)C(N)=O (stereo partly drawn) [4c] (H-[dK][Nva][Phe(4-NO2)][ξAla(4-thiazolyl)][pS]A[β3hS][βAla][Phe(4-NO2)]K-NH2; N-terminus and C-terminus assumed) | 1.2
CCC[C@H](NC(=O)[C@H](N)CCCCN)C(=O)N[C@@H](Cc1ccc([N+](=O)[O-])cc1)C(=O)NC(Cc1cscn1)C(=O)N[C@@H](COP(=O)(O)O)C(=O)N[C@@H](Cc1ccccc1)C(=O)N[C@@H](CO)CC(=O)NCCC(=O)N[C@@H](Cc1ccc([N+](=O)[O-])cc1)C(=O)N[C@@H](CCCCN)C(N)=O (stereo partly drawn) [4b] (H-[dK][Nva][Phe(4-NO2)][ξAla(4-thiazolyl)][pS]F[β3hS][βAla][Phe(4-NO2)]K-NH2; N-terminus and C-terminus assumed) | 0.033

Okay, next one:
Consider CCC[C@H](NC(=O)[C@H](N)CCCCN)C(=O)N[C@@H](Cc1ccc([N+](=O)[O-])cc1)C(=O)NC(Cc1cscn1)C(=O)N[C@@H](COP(=O)(O)O)C(=O)N[C@@H](Cc1ccc([N+](=O)[O-])cc1)C(=O)N[C@@H](CO)CC(=O)NCCC(=O)N[C@@H](Cc1ccc(O)cc1)C(=O)N[C@@H](CCCCN)C(N)=O (stereo partly drawn) [5a] (H-[dK][Nva][Phe(4-NO2)][ξAla(4-thiazolyl)][pS][Phe(4-NO2)][β3hS][βAla]YK-NH2; N-terminus and C-terminus assumed) . Its measured Affinity Kd is 1.2

###

# target-under-test: 14-3-3γ (Homo sapiens, UniProt P61981)
# Construct: made in house; host or cells: E. coli NiCo21 (DE3)
# method-summary: Isothermal titration calorimetry (ITC) of 14-3-3 binding to peptide
# run-conditions: Table S6 (unit given in Fig. 4 legend); ITC, 25 °C; average of two runs
Where a SMILES comes first, the peptide text is derived from it. [ ]: non-standard residue; d: D form. ξ: configuration not given here. Phe(4-NO2) = N[C@@H](Cc1ccc([N+](=O)[O-])cc1)C(=O)O; ξAla(4-thiazolyl) = NC(Cc1cscn1)C(=O)O; pS = N[C@@H](COP(=O)(O)O)C(=O)O; β3hS = N[C@@H](CO)CC(=O)O; Nva = CCC[C@H](N)C(=O)O; ξβ3hS = NC(CO)CC(=O)O; βAla = NCCC(=O)O
readout: ΔH

CCC[C@H](NC(=O)[C@H](N)CCCCN)C(=O)N[C@@H](Cc1ccc([N+](=O)[O-])cc1)C(=O)NC(Cc1cscn1)C(=O)N[C@@H](COP(=O)(O)O)C(=O)N[C@@H](Cc1ccc([N+](=O)[O-])cc1)C(=O)NC(CO)CC(=O)NCCC(=O)N[C@@H](Cc1ccc([N+](=O)[O-])cc1)C(=O)N[C@@H](CCCCN)C(N)=O (stereo partly drawn) [compound 1] (H-[dK][Nva][Phe(4-NO2)][ξAla(4-thiazolyl)][pS][Phe(4-NO2)][ξβ3hS][βAla][Phe(4-NO2)]K-NH2) | -10,71 kcal mol^-1

Okay, next one:
Consider CCC[C@H](NC(=O)[C@H](N)CCCCN)C(=O)N[C@@H](Cc1ccc([N+](=O)[O-])cc1)C(=O)N[C@@H](C)C(=O)N[C@@H](COP(=O)(O)O)C(=O)N[C@@H](Cc1ccc([N+](=O)[O-])cc1)C(=O)N[C@@H](CO)CC(=O)NCCC(=O)N[C@@H](Cc1ccc([N+](=O)[O-])cc1)C(=O)N[C@@H](CCCCN)C(N)=O [3a] (H-[dK][Nva][Phe(4-NO2)]A[pS][Phe(4-NO2)][β3hS][βAla][Phe(4-NO2)]K-NH2; N-terminus and C-terminus assumed) . Its measured ΔH is -7,40 kcal mol^-1
